Entry source: BigSolDB 2.1

stated conditions: in n-butanol, 325.15 K
attribute measured: solubility (mole fraction)
Number, no unit, nothing else.

Exercise: Give the reported solubility (mole fraction) for this molecule. CC(C)(C)OC(=O)N[C@@H](CC(=O)O)Cc1cc(F)c(F)cc1F
Key: 0.126

====

stated conditions: in THF, 310.15 K
attribute measured: solubility (mole fraction)

Exercise: Give solubility (mole fraction) for CC(C)(C)OC(=O)N[C@@H](CC(=O)O)Cc1cc(F)c(F)cc1F
Key: 0.187

====

stated conditions: in n-propanol, 280.15 K
attribute measured: solubility (mole fraction)
Give the figure only, with no unit attached.

Exercise: Name the recorded solubility (mole fraction) of the item CC(C)(C)OC(=O)N[C@@H](CC(=O)O)Cc1cc(F)c(F)cc1F in your answer.
Key: 0.0312
